Consider the following compounds; for each one, report its cytotoxicity at 10 µM.
Assay: Toxicity liver stage against HepG2, at 10uM
Type: cell-based
Parameters: test concentration 10 uM, cell line HepG2-A16-CD81EGFP
Conditions: human, HepG2-A16-CD81EGFP cells; read-out: INHIBITION
Dear colleague, please return just the value in %, with no unit written.

Any idea what its cytotoxicity at 10 µM is? The compound is CN(C)C(=O)N1CCN(c2cc(N3CCCC3CO)ncn2)CC1 (stereo unspecified) -1.81

Any idea what its cytotoxicity at 10 µM is? The compound is COCC(=O)N1Cc2cnc(Cc3ccc(OC)cc3)nc2C1 -15.8

Any idea what its cytotoxicity at 10 µM is? The compound is CCNC(=O)C1CCN(Cc2ccc(C(=O)Nc3cnns3)cc2)C1 (stereo unspecified) 9.2

Any idea what its cytotoxicity at 10 µM is? The compound is Cc1n[nH]c(C2CN(C(=O)Cn3ccccc3=O)CCO2)n1 (stereo unspecified) 5.75

Any idea what its cytotoxicity at 10 µM is? The compound is CN(C)S(=O)(=O)N1C[C@H]2CC[C@@H](C1)N(Cc1ccc3nsnc3c1)C2 -7.7

Any idea what its cytotoxicity at 10 µM is? The compound is CC(C)Cc1cc(C(=O)NCC2CCCN(Cc3ccco3)C2)on1 (stereo unspecified) -5.12

Any idea what its cytotoxicity at 10 µM is? The compound is CNC(=O)c1cccc(CCNS(C)(=O)=O)c1 13.4

Any idea what its cytotoxicity at 10 µM is? The compound is CNC(=O)c1cccnc1N1CCN(C/C=C/c2ccccc2)CC1 -9.23

Any idea what its cytotoxicity at 10 µM is? The compound is CCc1cc(=O)[nH]c(-c2ccc(NCCc3ccc(O)cc3)nc2)n1 61.1

Any idea what its cytotoxicity at 10 µM is? The compound is COc1ccc(OC)c(C(C)NS(=O)(=O)c2cnn(C)c2)c1 (stereo unspecified) -3.35

Any idea what its cytotoxicity at 10 µM is? The compound is CC(C(=O)NCC(C)(C)c1ccc2c(c1)OCCO2)n1cncn1 (stereo unspecified) 13.8
